Where these numbers come from: ChEMBL document CHEMBL1138454

Protein target, amino acids: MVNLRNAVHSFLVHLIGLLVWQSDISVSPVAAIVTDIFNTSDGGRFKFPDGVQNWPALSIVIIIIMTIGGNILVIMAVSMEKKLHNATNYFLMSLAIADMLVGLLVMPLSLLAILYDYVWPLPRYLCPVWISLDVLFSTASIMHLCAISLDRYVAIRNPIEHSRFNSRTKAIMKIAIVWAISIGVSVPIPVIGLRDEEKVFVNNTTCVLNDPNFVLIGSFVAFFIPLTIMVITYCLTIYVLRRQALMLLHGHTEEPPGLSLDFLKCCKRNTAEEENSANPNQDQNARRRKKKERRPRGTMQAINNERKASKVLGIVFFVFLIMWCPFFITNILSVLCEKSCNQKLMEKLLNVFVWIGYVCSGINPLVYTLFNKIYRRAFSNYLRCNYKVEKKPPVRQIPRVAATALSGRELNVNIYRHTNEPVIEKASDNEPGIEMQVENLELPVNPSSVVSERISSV
pIC50: −log10 of the molar value.
Readout Kind: pIC50

Look up pIC50: "Cc1c(O[C@@H](C)c2cccc(F)c2)cccc1C1CCNCC1"
< 6.00

====

Method Description: Half life in po dosed rat plasma
Format: ADME, organism-based
Readout Kind: half-life (h)
The response must be a number in h with no trailing unit.

Look up half-life: "Cc1c(O[C@@H](C)c2cccc(F)c2)cccc1C1CCNCC1"
5.9

====

Method Description: Ratio of drug level in rat brain to plasma
Reported Conditions: brain and plasma
Readout Kind: Kp
API doc: respond with a numeric literal and nothing else, no unit.

Look up Kp: "Cc1c(O[C@@H](C)c2cccc(F)c2)cccc1C1CCNCC1"
23

====

System Under Test: UniProt:P28223
Sequence (P28223 whole entry): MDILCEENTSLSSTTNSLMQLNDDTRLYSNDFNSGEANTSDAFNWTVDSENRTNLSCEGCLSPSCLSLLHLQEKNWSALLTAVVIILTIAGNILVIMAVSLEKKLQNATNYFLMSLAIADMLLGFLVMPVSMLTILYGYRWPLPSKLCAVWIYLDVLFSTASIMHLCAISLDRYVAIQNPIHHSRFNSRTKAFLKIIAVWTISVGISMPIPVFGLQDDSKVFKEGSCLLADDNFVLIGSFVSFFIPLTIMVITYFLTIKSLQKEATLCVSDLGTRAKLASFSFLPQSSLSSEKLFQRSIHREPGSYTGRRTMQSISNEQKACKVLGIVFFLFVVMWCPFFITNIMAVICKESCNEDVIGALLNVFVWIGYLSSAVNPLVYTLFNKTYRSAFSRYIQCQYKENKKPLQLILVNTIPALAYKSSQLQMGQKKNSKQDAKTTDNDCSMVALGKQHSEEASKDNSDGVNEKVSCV
Readout Kind: IC50

Look up IC50: "Cc1c(O[C@@H](C)c2cccc(F)c2)cccc1C1CCNCC1"
> 1 µM
